- system: recombinant human or murine heat shock protein 70 (hsp70)
- Type: binding
- measurement.setup: read-out: Kd, heat shock protein-binding domain: NLLRLTGW; pH 8; read-out: Kd, heat shock protein-binding domain: […]
No end group written: not given here.
endpoint.name: pKd
pKd field: float, defined as -log10 of concentration (mol/L).

q: I'd like to know its pKd. The substance in question is PSMA P2 + NLLRLTGW
a: 5.89

q: Reported pKd, substance NLLRLTGW : ____
a: 5.73

q: // query pKd value for entry IMDQVPFSVgsgNLLRLTGW (IMDQVPFSVGSGNLLRLTGW; not fully specified; printed as IMDQVPFSVgsgNLLRLTGW)
a: 5.51

q: Name the reported pKd value associated with the substance SIINFEKLgsgNLLRLTGW (SIINFEKLGSGNLLRLTGW; not fully specified; printed as SIINFEKLgsgNLLRLTGW) [OVA + NLLRLTGW]
a: 5.92

q: Can you share its pKd? I mean this substance: YMDGTMSQVgsgNLLRLTGW
a: 5.58

q: Requested field: pKd. Item: TLGIVCPIgsgNLLRLTGW [HPV16 E7 (86-93) + NLLRLTGW]
a: 5.28
